Assay: recombinant barcode read abundance after kanamycin selection (control-corrected) (log10(CPM+1)); higher = more efficient recombination; sequences stand for … in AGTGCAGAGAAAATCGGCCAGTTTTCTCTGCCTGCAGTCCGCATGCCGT…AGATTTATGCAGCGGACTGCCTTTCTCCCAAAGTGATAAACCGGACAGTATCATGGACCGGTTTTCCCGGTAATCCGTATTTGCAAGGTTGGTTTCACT; site = the 11-nt target;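 also: IS621 recombinase and bridge RNA in Escherichia coli cells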
observable: recombinant barcode read abundance (log10)

| chain.sequence | result |
| --- | --- |
| GCGCGTGCTTGGGTTCTAACCTGTTGCCT (site GCTCGTGCTAG) | 0.11 |
| TAGTACGCTTGGGTTCTAACCTGTTGCAG (site TAGTAAGCTCA) | 0.12 |
| CTACACCCTTGGGTTCTAACCTGTTGCTT (site CTACAGCCTAA) | 0.296 |
| GAGTACCCTTGGGTTCTAACCTGTTGCCT (site GAGTACCCTAG) | 1.96 |
| ATAGAGTCTTGGGTTCTAACCTGTTGCCT (site ACAGATTCTAG) | 0.143 |
| AGAGTCCCTTGGGTTCTAACCTGTTGCGG (site AGAGTCTCTCA) | 0.295 |
| CCGGGTTCTTGGGTTCTAACCTGTTGCCT (site CGGGGTTCTAG) | 0.16 |
| GGGGACCCTTGGGTTCTAACCTGTTGCGT (site GGGGACCCTAC) | 3.4 |
| TCTGGGGCTTGGGTTCTAACCTGTTGCTG (site TCTGGGGCTCG) | 0.792 |
| GAGAGATCTTGGGTTCTAACCTGTTGCCT (site GAGACATCTAG) | 0.157 |
| GCAAGGTCTTGGGTTCTAACCTGTTGCTA (site GCAAGCTCTTA) | 0.133 |
| TAACCTTCTTGGGTTCTAACCTGTTGCCT (site TAACCTCCTAG) | 0.019 |
| TTGCCTACTTGGGTTCTAACCTGTTGCCT (site TTGCCGACTAG) | 0.0577 |
| GGGATACCTTGGGTTCTAACCTGTTGCTA (site TATGGTACTAC) | 0.292 |
| GCCACTCCTTGGGTTCTAACCTGTTGCGT (site GTCAATCCTAC) | 0.185 |
| AAGGAACCTTGGGTTCTAACCTGTTGCCT (site GAGGAACCTAG) | 0.951 |
| GGTCATGCTTGGGTTCTAACCTGTTGCCT (site GGTCATTCTAG) | 0.0304 |
| GCCAAACCTTGGGTTCTAACCTGTTGCCT (site GCCATACCTAG) | 0.184 |
| GCACAACCTTGGGTTCTAACCTGTTGCCT (site GCACCACCTAG) | 0.0258 |
| TAAAGGCCTTGGGTTCTAACCTGTTGCTA (site CAAAGGTCTTA) | 0.218 |
| GTTGGCCCTTGGGTTCTAACCTGTTGCCT (site GTTGGCCCTAG) | 1.94 |
| GTCAACTCTTGGGTTCTAACCTGTTGCCT (site GTCAACTCTAG) | 2.06 |
| ATCATAGCTTGGGTTCTAACCTGTTGCGC (site CCATACCCTTA) | 0.0517 |
| CCTGGGACTTGGGTTCTAACCTGTTGCGC (site CCTGGGACTCC) | 0.347 |
| TCGGAGTCTTGGGTTCTAACCTGTTGCCT (site TCGGAGTCTAC) | 1.06 |
| GGGGACCCTTGGGTTCTAACCTGTTGCGT (site GGGGACCCTTC) | 1.18 |
| GAGTCGTCTTGGGTTCTAACCTGTTGCCT (site GAGTCGCCTAG) | 0.193 |
| TAGTACCCTTGGGTTCTAACCTGTTGCAA (site TAGTACCCTCT) | 0.104 |
| TGTCTCCCTTGGGTTCTAACCTGTTGCCG (site TGTGTCCCTCG) | 0.108 |
| TAGCTCCCTTGGGTTCTAACCTGTTGCCT (site TAGCTCCCTGG) | 0.105 |
| GGAGAACCTTGGGTTCTAACCTGTTGCCT (site GGAGAACCTAG) | 2.48 |
| TGTGCAACTTGGGTTCTAACCTGTTGCTG (site ATGCTTGCTTG) | 0.353 |
| CTCTACCCTTGGGTTCTAACCTGTTGCAG (site CTCTACCCTCT) | 1.9 |
| CCAAGCTCTTGGGTTCTAACCTGTTGCCT (site CCAAGCACTAG) | 0.0905 |
| AGGTCACCTTGGGTTCTAACCTGTTGCGT (site AGGTCACCTAA) | 0.276 |
| AAGCATCCTTGGGTTCTAACCTGTTGCCT (site ATGCATCCTAG) | 0.00873 |
| TAGTGGTCTTGGGTTCTAACCTGTTGCTA (site TAGTGGTCTAT) | 0.403 |
| ACCGCTCCTTGGGTTCTAACCTGTTGCCT (site ATCGCTCCTAG) | 0.0271 |
| AATGCTACTTGGGTTCTAACCTGTTGCAT (site TATGCTACTAT) | 0.238 |
| CACTGAGCTTGGGTTCTAACCTGTTGCCT (site CACTGAGCTAG) | 0.845 |
| TTGTACTCTTGGGTTCTAACCTGTTGCTT (site TTGTACTCTAA) | 0.453 |
| GGCCTGCCTTGGGTTCTAACCTGTTGCCT (site GTCATGCCTAG) | 0.0864 |
